molecular target: Cytochrome P450 2C9 (Homo sapiens) (UniProt P11712); experiment: Cytochrome P450 family 2 subfamily C member 9 (CYP2C9) small molecule antagonists: luciferase biochemical (cell-free) qHTS assay (AID 1645842); details: P450-Glo CYP2C9 enzyme assay, luciferin luminescence; series mostly up to 57.4 µM; also: nearly all actives have a fitted effect of over 55% in size
Sequence (P11712 whole entry, looked up): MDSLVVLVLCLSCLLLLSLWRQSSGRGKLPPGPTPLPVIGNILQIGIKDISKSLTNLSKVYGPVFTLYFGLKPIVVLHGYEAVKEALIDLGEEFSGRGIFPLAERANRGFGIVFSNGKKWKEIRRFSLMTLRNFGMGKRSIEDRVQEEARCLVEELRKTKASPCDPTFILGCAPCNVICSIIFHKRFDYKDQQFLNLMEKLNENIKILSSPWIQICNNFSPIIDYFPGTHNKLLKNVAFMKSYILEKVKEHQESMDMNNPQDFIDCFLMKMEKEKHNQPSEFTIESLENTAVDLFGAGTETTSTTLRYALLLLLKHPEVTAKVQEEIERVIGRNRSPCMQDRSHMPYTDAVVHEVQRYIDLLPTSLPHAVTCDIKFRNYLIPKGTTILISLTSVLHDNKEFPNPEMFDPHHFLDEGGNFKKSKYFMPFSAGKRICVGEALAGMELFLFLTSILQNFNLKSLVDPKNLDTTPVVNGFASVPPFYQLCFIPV
Results filed as inconclusive are left out. Active and inactive are the calls of the source. Calls follow the shape of the dose curve; as a rule, active = well fitted inhibition curve with a large enough effect in the repeat runs; inconclusive = weak or mixed curves; inactive = no such curve, though single readings can be large or run the other way.
Your response should consist of one outcome taken from active, inactive

Hi team, can someone confirm the assay call for `CC1(C)CC=C(c2cnc3ccccc3c2)c2cc(C(=O)Nc3ccc(C(=O)O)cc3)ccc21` ?
active

Another: `O=C(OC(C(F)(F)F)C(F)(F)F)N1CCN(Cc2cccc(Oc3ccccc3)c2)CC1`
active

Another: `N#Cc1cc(-c2n[nH]c(-c3ccncc3)n2)ccn1`
active

Another: `COc1cnc(-c2ccc(Cn3c(CC(C)(C)C(=O)O)c(SC(C)(C)C)c4cc(OC[C@@H]5Cc6ccccc6N5C(C)=O)ccc43)cc2)nc1`
active

Another: `COc1ccnc(CCc2nc3ncccc3[nH]2)c1`
inactive

Another: `Cc1cc(C(=O)N2Cc3cnn(C)c3Nc3ccccc32)ccc1CNC(=O)N1CCN(Cc2cc(O)cc(O)c2)CC1`
active

Another: CCNC(=O)C1CC(F)(c2ccc(CN3CCCC3)c(F)c2)C1 (stereo not given)
inactive

Another: O=C(O)CC1CCC(c2ccc(-c3ccc(Nc4ccc(C(F)(F)F)nc4)cn3)cc2)CC1 (stereo not given)
inactive

Another: Cc1nnc(-c2ccc3occ(-c4ccc(S(C)=O)cc4)c3c2)o1 (stereo not given)
active

Another: `CCOC(=O)CSc1nc2c(sc3ccccc32)c(=O)n1CCCN1CCCC1`
active

Another: `CC1(C)[C@H]2C[C@H](C/C=C\CCCC(=O)O)[C@@H](NC(=O)c3csc4ccc(O)cc34)[C@@H]1C2`
active

Another: `O=C(O)c1cc(C(F)(F)F)ccc1N1CC[C@H](OCc2ccccn2)C1`
active

Another: `O=C(NC/C=C/CN1CCN(c2cccc(Cl)c2Cl)CC1)c1ccc(-c2ccccn2)cc1`
active

Another: CCCN(CCN1CCN(c2ccccc2OC)CC1)C1CCc2ncsc2C1 (stereo not given)
inactive

Another: `CCOC(=O)COc1ccc2c(c1)C[C@@H](NC[C@H](O)c1cccc(Cl)c1)CC2`
active

====

tested on: Tov-21-G; experiment: Primary qHTS to identify gynecologic anti-cancer compounds using libraries of approved drugs and bioactive compounds (AID 1345084); details: Gynecologic cancer cell panel viability, ATPlite luminescence, 48 h; series mostly up to 57.5 µM; also: % is scaled to controls: 0 for no effect and ±100 for the full control effect; nearly all actives have a fitted effect of over 55% in size
Records with an inconclusive call do not appear. The source made the active and inactive calls. Calls follow the shape of the dose curve; as a rule, active = well fitted cell-killing curve with a large enough effect; inconclusive = small, poorly fitted or top-dose-only effect, or effect the other way; inactive = flat fitted curve, though single readings scatter.
MEASURED_ATTRIBUTE: activity change, negative = cytotoxicity

C[C@@H]1O[C@@H](O[C@H]2[C@H](OC(=O)[C@]34CCC(C)(C)C[C@H]3C3=CCC5[C@@]6(C)C[C@@H](O)[C@@H](O[C@@H]7O[C@H](CO)[C@@H](O)[C@H](O)[C@H]7O)[C@@](C)(CO)C6[C@H](O)C[C@@]5(C)[C@]3(C)CC4)OC[C@H](O)[C@@H]2O)[C@H](O)[C@H](O[C@@H]2OC[C@](O)(CO)[C@H]2O)[C@H]1O[C@@H]1OC[C@@H](O)[C@H](O[C@H]2O[C@H](C)[C@@H](O)[C@H](O)[C@@H]2O)[C@H]1O (stereo not given in full) | -0.147% [at 6.55 µM] (inactive)
C[C@]1(O)CC[C@@H]2C(C(=O)O)=CO[C@@H](O[C@@H]3O[C@H](COC(=O)/C=C/c4ccc(O)c(O)c4)[C@@H](O)[C@H](O)[C@H]3O)[C@@H]21 | inactive
O=C1OC(c2ccc(O)cc2)C(O)=C1Cc1ccccc1 (stereo not given) | inactive
CC1(C)CC[C@]2(C(=O)O)CC[C@]3(C)C(=CCC4[C@@]5(C)C[C@@H](O)[C@H](O)[C@@](C)(CO)C5[C@H](O)C[C@]43C)[C@@H]2C1 (stereo not given in full) | inactive

GET /values?readout=activity change, negative = cytotoxicity&item= CC/C=C\CC1C(CC(=O)O)CCC1OC1OC(CO)C(O)C(O)C1O (stereo not given)
inactive

====

test system: OV90; assay: Primary qHTS to identify gynecologic anti-cancer compounds using libraries of approved drugs and bioactive compounds (AID 1345084); details: Gynecologic cancer cell panel viability, ATPlite luminescence, 48 h; series mostly up to 57.5 µM; also: % is scaled to controls: 0 for no effect and ±100 for the full control effect; nearly all actives have a fitted effect of over 55% in size
Results filed as inconclusive are left out. Calls of active or inactive are those of the source. The call rests on the fitted dose curve; in most records, active means well fitted cell-killing curve with a large enough effect; inconclusive means small, poorly fitted or top-dose-only effect, or effect the other way; inactive means flat fitted curve, though single readings scatter. Where a SMILES comes first, the peptide text is derived from it. The star is where a group is joined. PhAc = O=C(Cc1ccccc1)*
MEASURED_ATTRIBUTE: activity change, negative = cytotoxicity

Use these answered entries as a reference point.
CCOC(=O)CNC(=O)[C@@H]1CCCN1C(=O)Cc1ccccc1 (PhAc-Pro-Gly-OEt) | inactive
CC1(C)CC[C@]2(C(=O)O[C@@H]3O[C@H](CO)[C@@H](O)[C@H](O)[C@H]3O)CC[C@]3(C)C(=CCC4[C@@]5(C)CC[C@H](O[C@@H]6O[C@H](C(=O)O)[C@@H](O)[C@H](O)[C@H]6OC6OC(CO)C(O)C(O)C6O)C(C)(C)C5CC[C@]43C)[C@@H]2C1 (some centres undefined) | 1.96% [at 11.6 µM] (inactive)
COC(=O)[C@]1(C)CCC[C@@]2(C)C(=O)CC[C@H]3C(=O)C=C(CC[C@@H]21)C3O (some centres undefined) | inactive
CC(C)C(NC(=O)c1ccc(O)cc1)C(=O)N1CCCC1C(=O)Nc1c(O)cccc1C(=O)O (centres undefined) | inactive

With those in mind, consider the next molecule.
GET /values?readout=activity change, negative = cytotoxicity&item= COc1c2c(c(C)c3c1C(=O)OC3)OC1(C)CC(O)C34OC(O)(CCC3(C)C1C2)OC4(C)C (centres undefined)
inactive

====

target: Nicotinamide N-methyltransferase (Homo sapiens) (UniProt P40261); assay: Confirmatory Screen for Target Class Profiling of Small Molecule Inhibitors of Methyltransferases (AID 1745852); settings: MTase-Glo luminescence, SAH detection, recombinant enzyme; measured here: NNMT max response; stronger effect = lower value
Sequence (P40261 whole entry, looked up): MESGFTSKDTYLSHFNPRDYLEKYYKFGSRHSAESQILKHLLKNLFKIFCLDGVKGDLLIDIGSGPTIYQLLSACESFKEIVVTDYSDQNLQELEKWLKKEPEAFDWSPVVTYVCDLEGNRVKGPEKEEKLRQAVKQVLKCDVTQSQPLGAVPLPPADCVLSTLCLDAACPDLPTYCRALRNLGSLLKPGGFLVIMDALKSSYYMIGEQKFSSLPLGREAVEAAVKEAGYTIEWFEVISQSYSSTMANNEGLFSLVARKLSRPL
Provide the reported activity of each item.
API: value field is a number in %; no unit string.

GET /values?readout=activity&item= C=CC(C)(O)CC/C=C(\C)COC1O[C@H](CO)[C@@H](O)[C@H](O)[C@H]1O (stereo partly drawn)
-3.25

Another: `O=C(/C=C/c1ccc(O)cc1)OC[C@@]1(O)C=C[C@@H]2C(C(=O)O)=CO[C@@H](O[C@@H]3O[C@H](CO)[C@@H](O)[C@H](O)[C@H]3O)[C@@H]21`
-1.35

Another: `COc1c(O)cc2c(c1O)C(=O)O[C@H](C)[C@H]2O`
0.175

====

system: Tov-21-G; assay: Primary qHTS to identify gynecologic anti-cancer compounds using libraries of approved drugs and bioactive compounds (AID 1345084); details: Gynecologic cancer cell panel viability, ATPlite luminescence, 48 h; series mostly up to 57.5 µM; also: % is scaled to controls: 0 for no effect and ±100 for the full control effect; nearly all actives have a fitted effect of over 55% in size
Inconclusive results are not listed. Calls of active or inactive are those of the source. Calls come from the whole dose curve; as a rule, active = well fitted cell-killing curve with a large enough effect; inconclusive = small, poorly fitted or top-dose-only effect, or effect the other way; inactive = flat fitted curve, though single readings scatter. Where a SMILES comes first, the peptide text is derived from it.
MEASURED_ATTRIBUTE: activity change, negative = cytotoxicity

Use these answered entries as a reference point.
CC(=O)NC(Cc1ccccc1)C(=O)NC(C(=O)O)C(C)C (stereo not drawn) (Ac-Phe-Val-OH; configuration not given here) | inactive
C[C@@H]1O[C@@H](O[C@H]2[C@H](OC(=O)[C@]34CCC(C)(C)C[C@H]3C3=CCC5[C@@]6(C)CC[C@H](O[C@@H]7O[C@H](CO[C@@H]8OC[C@H](O)[C@H](O)[C@H]8O[C@@H]8OC[C@@H](O)[C@H](O)[C@H]8O)[C@@H](O)[C@H](O)[C@H]7O)C(C)(C)C6CC[C@@]5(C)[C@]3(C)C[C@H]4O)O[C@H](CO)[C@@H](O)[C@@H]2O)[C@H](O[C@@H]2O[C@H](CO)[C@@H](O)[C@H](O)[C@H]2O)[C@H](O)[C@H]1O[C@@H]1OC[C@@H](O)[C@H](O[C@@H]2OC[C@@H](O)[C@H](O)[C@H]2O)[C@H]1O (stereo not given in full) | -2.86% [at 6.55 µM] (inactive)
C=C1CC2C3(C)C=CC(=O)OC(C)(C)C3CC(OC(C)=O)C2(C)C2C(=O)OC(C)C(=O)C12C (stereo not given) | inactive
OCC1OC(Oc2cc(O)cc(/C=C/c3ccc(OC4OC(CO)C(O)C(O)C4O)cc3O)c2)C(O)C(O)C1O (stereo not given) | inactive

Fill in the recorded activity change, negative = cytotoxicity for this compound, with Tov-21-G as test system: COc1ccc(C2COc3cc(O)ccc3C2)c(O)c1OC (stereo not given)
inactive

Another: COc1cc(C(O)C2COC(c3ccc(OC4OC(CO)C(O)C(O)C4O)c(OC)c3)C2CO)ccc1O (stereo not given)
inactive

Another: `COC(=O)[C@]1(Cc2ccc(O)c(CC=C(C)C)c2)OC(=O)C(O)=C1c1ccc(O)cc1`
inactive

Another: `C=C1C(=O)O[C@@H]2C[C@]3(C)[C@@H](CCC(C)=O)[C@@H]3C[C@H]12`
inactive

Another: CC(=O)OC1CCC2(C)C(CCC3(C)C2CC=C2C4CC(C)(C)CCC4(C)CCC23C)C1(C)C(=O)O (stereo not given)
inactive

Another: COc1cc2c(cc1O)C(c1ccc(O)cc1)C(C)C(C)C2 (stereo not given)
inactive

Another: C[C@@H]1CC[C@]2(C(=O)O[C@@H]3O[C@H](CO[C@@H]4O[C@H](CO)[C@@H](O[C@@H]5O[C@@H](C)[C@H](O)[C@@H](O)[C@H]5O)[C@H](O)[C@H]4O)[C@@H](O)[C@H](O)[C@H]3O)CC[C@]3(C)C(=CCC4[C@@]5(C)C[C@@H](O)[C@H](O)[C@@](C)(CO)C5CC[C@]43C)C2[C@H]1C (stereo not given in full)
3.06% [at 11.6 µM] (inactive)

Another: COC(=O)[C@H](c1ccccc1Cl)N1CCC2SC(=O)C=C2C1 (stereo not given in full)
inactive

Another: C/C=C1/C[N+](C)([O-])C2Cc3c([nH]c4ccccc34)C(=O)CC1C2C(=O)OC (stereo not given)
inactive

Another: `CC(C)CC(=O)O[C@@H]1O[C@H](CO)[C@@H](O[C@H]2O[C@H](C)[C@@H](N[C@H]3C=C(CO)[C@@H](O[C@H]4O[C@H](CO)[C@@H](O[C@H]5O[C@H](CO)[C@@H](O[C@H]6O[C@H](CO)[C@@H](O)[C@H](O)[C@H]6O)[C@H](O)[C@H]5O)[C@H](O)[C@H]4O)[C@H](O)[C@H]3O)[C@H](O)[C@H]2O)[C@H](O)[C@H]1O`
2.23% [at 11.6 µM] (inactive)

Another: CC(=O)OCC1=CCC2C(C)(C)CCCC2(C)C12CCC(C)(CC(=O)O)O2 (stereo not given)
inactive

Another: `C[C@H](/C=C/[C@@]1(O)[C@H](C)CC(=O)CC1(C)C)O[C@@H]1O[C@H](CO[C@@H]2OC[C@@H](O)[C@H](O)[C@H]2O)[C@@H](O)[C@H](O)[C@H]1O`
inactive

Another: `C/C=C(/C)C(=O)O[C@@H]1C[C@@H](OC(=O)/C(C)=C\C)[C@@]2(C)C3C(=O)C=C(C)C2C3C1(C)C`
inactive

Another: `O=C(O)C1(c2ccc(-c3ccc(Cl)c(Cl)c3)c(F)c2)CC1`
inactive

Another: CC/C=C\C(O)C(O)C1=C(C)C(=O)C2(O1)C(=O)NC(OC)(C(=O)c1ccccc1)C2O (stereo not given)
inactive

Another: `C=C1CC/C=C(/CO)C(=O)C[C@@H]2[C@@H]1C[C@@]2(C)COC(C)=O`
inactive
